Quick reference: pKd of the listed items.
- Test Target: SARS-CoV-2 spike N-terminal domain (NTD), antigen of Example 10 (SARS-CoV-2, UniProt P0DTC2 14-305)
pKd: −log10 of the molar value.
Measurement Label: pKd

[[record]]
binder = "IMPI-067 (antibody, V domains shown) VH: QVQLVESGGGVVQPGTSLRLSCAASGFTFNSFGMHWVRQAPGKGLEWVAVISYDGSSKYYADSVKGRFTISRDNSKNTLYLQMNSLRAEDTAVYYCAKDEGDYDDYYYGMDVWGQGTTVTVSS VL: EIVLTQSPGSLSLSPGERATLSCRASQSLSSRYLAWYHQKPGQAPRLLIYGASSRATGIPDRFSGSGSGTDFTLTISGLEPEDFAVYYCQQYGNSITFGGGTKVEIK"
measurement_label = "pKd"
result_number = 7.07

[[record]]
binder = "IMPI-056 (antibody, V domains shown) VH: EVQLVESGGGLIQPGGSLRLSCAASGLTVSSNYMNWVRQAPGKKLEWVSVIYSGGSTFYADSVRGRFTISRDNSKNTLFLQMNSLRAEDSAVYYCARDLGPYGVDVWGQGTTVTVSS VL: DIQLTQSPSFLSASVGDRVTITCWASQGISSYLAWYQQKPGKAPKLLIYAASTLQSGVPSRFSGSGSGTEFTLTISSLQPEDFATYYCQQLNSYPLTFGQGTRLEIK"
measurement_label = "pKd"
result_number = 6.17

[[record]]
binder = "IMPI-068 (antibody, V domains shown) VH: QVQLVESGGDVVQPGRSLRLSCAASGFTFSRYGMHWVRQAPGKGLEWVAVISYDGSDKYYADSVKGRFTISRDNSKNTLYLQMNSLRAEDTAVYYCAKQLPLYYYYYGMDVWGQGTTVTVSS VL: AIQLTQSPSSLSASVGDRVTITCRASQGISSALAWYQQKPGKAPNLLIYDASSLESGVPSRFSGSGSGTDFTLTISSLQPEDFATYYCQQFNIYPHTFGPGTKVDIK"
measurement_label = "pKd"
result_number = 5.59

